Reported log10 IC50 by item:
target: human orexin-2 receptor (Homo sapiens (Human), UniProt O43614); assay: Intracellular calcium measurement (FLIPR), CHO cells expressing human orexin-2 receptor, 3 nM orexin-A; assay type: cell-based; conditions: CHO cells expressing human orexin-2 receptor, FLIPR, 3 nM orexin-A; geometric mean if determined several times; read-out: IC50 OX2
Sequence (O43614 whole entry): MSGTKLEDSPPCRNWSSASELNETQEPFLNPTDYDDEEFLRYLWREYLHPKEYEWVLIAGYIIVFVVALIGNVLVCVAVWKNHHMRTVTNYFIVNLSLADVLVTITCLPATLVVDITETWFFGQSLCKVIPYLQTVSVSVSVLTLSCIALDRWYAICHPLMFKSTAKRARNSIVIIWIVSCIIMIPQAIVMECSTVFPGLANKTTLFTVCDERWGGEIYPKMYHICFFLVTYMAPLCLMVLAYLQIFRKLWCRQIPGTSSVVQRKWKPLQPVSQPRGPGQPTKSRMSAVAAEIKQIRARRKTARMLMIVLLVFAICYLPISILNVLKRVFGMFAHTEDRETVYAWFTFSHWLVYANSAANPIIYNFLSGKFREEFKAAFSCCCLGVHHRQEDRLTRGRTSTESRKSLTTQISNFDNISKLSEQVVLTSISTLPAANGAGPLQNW
RECORDED ENDPOINT: log10 IC50 (log10 of the value in µM)

Cc1cccc(-c2ocnc2C(=O)N2CCC[C@@]2(C)c2nc(-c3ccccc3)no2)c1 [compound 539]; 0.25
COc1ccc(C)cc1-c1nc([C@@H]2CCCN2C(=O)c2cc(C)ccc2-n2nccn2)no1 [compound 411]; -2.05
Cc1ccc(-n2nccn2)c(C(=O)N2CCC[C@H]2c2nc(-c3cnn(C)c3)no2)c1 [compound 60]; -0.38
Cc1ccc(-n2nccn2)c(C(=O)N2CCC[C@H]2c2ncc(-c3ccccc3C(F)(F)F)[nH]2)c1 [compound 528]; -0.93
COc1c(F)cccc1-c1noc([C@@H]2CCCN2C(=O)c2ccc(C)cc2-n2nccn2)n1 [compound 195]; -1.96
COc1cc(C(=O)N2CCC[C@H]2c2cc(-c3ccccc3OC(F)(F)F)on2)c(-n2nccn2)cc1C [compound 436]; -1.89
CCOc1ccccc1-c1noc([C@@H]2CCCN2C(=O)c2cc(F)ccc2-n2nccn2)n1 [compound 263]; -0.98
Cc1cccc(-n2nccn2)c1C(=O)N1CCC[C@H]1c1nc(-c2cccc(Cl)c2C)no1 [compound 98]; -0.90
Cc1ccc(-c2ccccn2)c(C(=O)N2CCC[C@H]2c2nc(-c3ccccc3OC(F)(F)F)no2)c1 [compound 138]; -1.52
COc1cc(C(=O)N2CCC[C@H]2c2nc(-c3cccc(Cl)c3C)no2)c(-n2nccn2)cc1Cl [compound 280]; -2.40
Cc1ccc(-n2nccn2)c(C(=O)N2CCC[C@H]2c2cc(-c3cccc(Cl)c3C)n[nH]2)c1 [compound 534]; -1.28
O=C(c1ccc(F)cc1-n1nccn1)N1CCC[C@H]1c1nc(-c2ccccc2OC(F)(F)F)no1 [compound 163]; -1.06
